Experiment: small-molecule binders of probe aNOTCH3, primary screen, biochemical, small-molecule microarray, 635/667 nm fluorescence (AID 1120);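 further: probe is a biotin-tagged antibody raised against NOTCH3 rather than NOTCH3 protein; score merges spot fluorescence near 667 nm with spot signal to noise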
Details: higher = more signal
Use 0.2 as the dividing line for composite z-score, with the line itself on the YES side and lower values as NO.

INSERT INTO results (compound, class) VALUES
  ('COC(=O)[C@@]1(Cc2ccccc2)[C@H]2c3cc(C(=O)N(C)C)n(CCn4cc([N+](=O)[O-])nc4C)c3C[C@H]2CN1C(=O)c1ccccc1', 'NO'),
  ('CCCC=C(CCC)[C@@H](NS(=O)(=O)c1cccc2cccnc12)c1ccc(-c2ccccc2)cc1', 'YES'),
  ('CC(C)C(CO)N1C(=O)[C@@H]2[C@H]3C(=O)OCC=C[C@H]3OC23C=CCN(C(C)(C)C)C(=O)[C@@H]13 (some centres not stated)', 'NO');

Alright, here's another compound for you.
Is reported composite z-score greater than or equal to 0.2 here: CC(=O)NCCCC[C@@H]1NC(=O)[C@@H]2C[C@H](C(=O)NCCCCCCN)[C@H](c3cccc(OCCO)c3)N2C1=O NO

Data origin: PubChem BioAssay
